Target Desc: PARP-1 enzyme (Homo sapiens, UniProt P09874)
Construct: made in house
Sequence (P09874 whole entry): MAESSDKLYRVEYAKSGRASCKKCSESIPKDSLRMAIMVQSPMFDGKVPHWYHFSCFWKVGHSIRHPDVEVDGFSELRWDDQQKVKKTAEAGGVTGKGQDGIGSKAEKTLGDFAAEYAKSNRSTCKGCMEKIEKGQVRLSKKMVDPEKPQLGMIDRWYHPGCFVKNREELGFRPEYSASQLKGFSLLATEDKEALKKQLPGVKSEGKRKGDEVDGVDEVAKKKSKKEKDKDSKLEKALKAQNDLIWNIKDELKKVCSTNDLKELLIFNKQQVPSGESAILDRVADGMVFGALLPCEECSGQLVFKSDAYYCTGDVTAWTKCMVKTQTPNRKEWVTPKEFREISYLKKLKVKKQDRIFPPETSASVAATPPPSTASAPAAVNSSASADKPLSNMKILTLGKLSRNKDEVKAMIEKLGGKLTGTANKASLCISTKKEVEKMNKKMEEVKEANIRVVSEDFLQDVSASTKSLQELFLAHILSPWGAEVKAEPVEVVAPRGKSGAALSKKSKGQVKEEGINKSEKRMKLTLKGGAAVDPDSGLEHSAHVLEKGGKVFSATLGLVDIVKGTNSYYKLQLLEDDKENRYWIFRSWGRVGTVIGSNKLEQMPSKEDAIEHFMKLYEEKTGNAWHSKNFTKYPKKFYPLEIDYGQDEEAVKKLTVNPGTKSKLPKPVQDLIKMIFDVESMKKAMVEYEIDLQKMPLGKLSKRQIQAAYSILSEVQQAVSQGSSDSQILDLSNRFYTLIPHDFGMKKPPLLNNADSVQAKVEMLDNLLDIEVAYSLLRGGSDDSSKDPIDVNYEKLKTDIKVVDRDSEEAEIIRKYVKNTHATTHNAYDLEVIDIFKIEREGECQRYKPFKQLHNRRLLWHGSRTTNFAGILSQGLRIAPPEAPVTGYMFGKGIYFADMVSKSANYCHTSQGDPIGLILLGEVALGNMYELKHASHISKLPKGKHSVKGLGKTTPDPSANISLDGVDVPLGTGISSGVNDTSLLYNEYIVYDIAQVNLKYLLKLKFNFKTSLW
Test: In vitro filtration assay for PARP-1 inhibitory activity
Type: biochemical
Applied Conditions: nicked DNA activated PARP-1, [32P]-NAD, histones; read-out: In vitro filtration assay pIC50 (converted)
Criterion: IC50 strictly under 3000 nM. Met: rule met. Not met: rule not met.

Solved cases (3 shown):
CCc1cc2cc(C(C3CCCCCC3)N3CCC(=O)CC3)ccc2[nH]c1=O (centres unmarked): rule met
CCc1cc2cc(C(O)C3CCCCC3)ccc2[nH]c1=O (centres unmarked): rule not met
CCc1cc2cc(C(SCCN(C)C)C3CCCCC3)ccc2[nH]c1=O (centres unmarked): rule met

Would you kindly look at the next entry?
q: # TODO verify IC50 < 3000 nM strictly for this compound: CCCCC(c1ccc2[nH]c(=O)c(CC)cc2c1)N1CCC(NCCOC)CC1 (centres unmarked)
a: rule not met

###

Quantity Measured: melting point (°C)
Unit °C implied. Number only.

Examples with their reported melting point follow.
CCOC(=O)C1CCN(C(C)Cc2ccc3[nH]c(=O)c(CC)nc3c2)CC1 (stereo not shown) [Co. No. 3]: 163
CCc1cc2cc(C(OCCN(C)C)C3CCCCC3)ccc2[nH]c1=O (stereo not shown) [Co. No. 8]: 122
CCc1cc2cc(C(C3CCCCCC3)N3CCC(=O)CC3)ccc2[nH]c1=O (stereo not shown) [Co. No. 2]: 218

q: Report measured melting point; entry is CCc1cc2cc(C(C3CC=CCC3)N3CCC(O)CC3)ccc2[nH]c1=O (stereo not shown) [Co. No. 11]
a: 196

q: Report measured melting point; entry is CCc1cc2cc(C(C3CCCCC3)N3CCC(O)(c4cncn4C)CC3)ccc2[nH]c1=O (stereo not shown) [Co. No. 6]
a: 194

q: Report measured melting point; entry is CCc1cc2cc([C@@H](OCCN(C)C)C3CCCCC3)ccc2[nH]c1=O [Co. No. 9]
a: 115

q: Report measured melting point; entry is CCc1cc2cc(C(O)CN3CCCCC3)ccc2[nH]c1=O (stereo not shown) [Co. No. 1]
a: 172

q: Report measured melting point; entry is CCc1cc2cc(C(CCN3CCN(C)CC3)C3CCCCC3)ccc2[nH]c1=O (stereo not shown) [Co. No. 5]
a: 181

q: Report measured melting point; entry is CCc1cc2cc(CN3CCN(Cc4ccccc4)CC3)ccc2[nH]c1=O [Co. No. 7]
a: 194

q: Report measured melting point; entry is CCc1cc2cc(C(C3CCCCC3)N3CCC4(CC3)CO4)ccc2[nH]c1=O (stereo not shown) [Co. No. 4]
a: 200

###

Target Desc: PARP-1 enzyme (Homo sapiens)
Construct: made in house
Test: In vitro Scintillation Proximity Assay (SPA) for PARP-1 inhibitory activity
Format: biochemical
Applied Conditions: nicked DNA activated PARP-1, [3H]-NAD+, biotinylated histones; read-out: In vitro SPA pIC50 (converted)
Experimental: Pharmacological Example In Vitro Scintillation Proximity Assay (SPA) for PARP-1 Inhibitory Activity Compounds of the present invention were tested in an in vitro assay based on SPA technology (proprietary to Amersham Pharmacia Biotech). […] The beads were allowed to sediment for at least 15 min. and plates transferred to a TopCountNXT™ (Packard) for scintillation counting, values were expressed as counts per minute (cpm). […]
Quantity Measured: log10 IC50 (log10 of the value in nM)
Quick note: numbers are log10 of IC50, with nM as the unit.

CCc1cc2cc(C(CC(C)C)N3CCC(=O)CC3)ccc2[nH]c1=O (stereo not drawn) [Co. No. 16]: 2.36
CCc1cc2cc(C(C3CCCCC3)N3CCC(N4CCOCC4)CC3)ccc2[nH]c1=O (stereo not drawn) [Co. No. 35]: 2.81
CCc1cc2cc(C(C3CCCCCC3)N3CCC(=O)CC3)ccc2[nH]c1=O (stereo not drawn) [Co. No. 2]: 2.37
CCc1cc2cc(C(NCCOC)C3CCCCC3)ccc2[nH]c1=O (stereo not drawn) [Co. No. 18]: 2.88
CCc1cc2cc(C(C(CC)CC)N3CCC(=O)CC3)ccc2[nH]c1=O (stereo not drawn) [Co. No. 17]: 2.58
CCc1cc2cc(CN3CCN(Cc4ccccc4)CC3)ccc2[nH]c1=O [Co. No. 7]: 1.98

q: Report measured log10 IC50; entry is CCc1cc2cc(C(NCCN(C)C)C3CCCCC3)ccc2[nH]c1=O (stereo not drawn) [Co. No. 25]
a: 3.05

q: Report measured log10 IC50; entry is CCc1nc2cc(C(C(C)C)N3CCC(c4n[nH]c5cc(F)ccc45)CC3)ccc2[nH]c1=O (stereo not drawn) [Co. No. 26]
a: 2.73

q: Report measured log10 IC50; entry is CCc1cc2cc(C(OCCN(C)C)C3CCCCC3)ccc2[nH]c1=O (stereo not drawn) [Co. No. 8]
a: 2.94

q: Report measured log10 IC50; entry is CCc1cc2cc(C(O)CN3CCN(C)CC3)ccc2[nH]c1=O (stereo not drawn) [Co. No. 14]
a: 2.59

q: Report measured log10 IC50; entry is CCc1cc2cc(C(c3ccsc3)N3CCC(NCCOC)CC3)ccc2[nH]c1=O (stereo not drawn) [Co. No. 32]
a: 2.29

###

Target Desc: PARP-1 enzyme (Homo sapiens, UniProt P09874)
Construct: made in house
Test: In vitro Scintillation Proximity Assay (SPA) for PARP-1 inhibitory activity
Format: biochemical
Applied Conditions: nicked DNA activated PARP-1, [3H]-NAD+, biotinylated histones; read-out: In vitro SPA pIC50 (converted)
Kindly note that classification relies on IC50 with these boundaries: low bin = under 300 nM, mid bin = from 300 nM up to 600 nM, high bin = 600 nM and over

Solved cases (7 shown):
CCc1cc2cc(C(=O)CN3CCOCC3)ccc2[nH]c1=O [Co. No. 36]: mid bin
CCc1cc2cc(C(C3CC=CCC3)N3CCC(O)CC3)ccc2[nH]c1=O (stereo not drawn) [Co. No. 11]: low bin
CCc1cc2cc(C(O)C3CCCCC3)ccc2[nH]c1=O (stereo not drawn) [Co. No. 28]: low bin
CCc1cc2cc(C(C3CCCCC3)N3CCC(O)CC3)ccc2[nH]c1=O (stereo not drawn) [Co. No. 34]: high bin
CCc1cc2cc(C(C3CC=CCC3)N3CCC(=O)CC3)ccc2[nH]c1=O (stereo not drawn) [Co. No. 24]: low bin
CCc1cc2cc(C(C3CCCCC3)N3CCC(O)(c4cncn4C)CC3)ccc2[nH]c1=O (stereo not drawn) [Co. No. 6]: mid bin
CCc1cc2cc(C(O)CN3CCCCC3)ccc2[nH]c1=O (stereo not drawn) [Co. No. 1]: mid bin

Would you kindly look at the next entry?
q: Bin this entry: CCCCC(c1ccc2[nH]c(=O)c(CC)cc2c1)N1CCC(NCCOC)CC1 (stereo not drawn) [Co. No. 33]
a: high bin

###

Target Desc: PARP-1 enzyme (Homo sapiens, UniProt P09874)
Construct: made in house
Test: In vitro Scintillation Proximity Assay (SPA) for PARP-1 inhibitory activity
Assay type: biochemical
Applied Conditions: nicked DNA activated PARP-1, [3H]-NAD+, biotinylated histones; read-out: In vitro SPA pIC50 (converted)
Quantity Measured: IC50 (nM)
Unit nM implied. Number only.

Examples with their reported IC50 follow.
CCc1cc2cc(C(c3cccs3)N3CCC(NCCOC)CC3)ccc2[nH]c1=O (stereo not shown) [Co. No. 12]: 188
CCc1cc2cc(C(C3CCCCC3)N3CCN(C)CC3)ccc2[nH]c1=O (stereo not shown) [Co. No. 21]: 902
CCc1nc2cc(C(C(C)C)N3CCC(=O)CC3)ccc2[nH]c1=O (stereo not shown) [Co. No. 19]: 757
CCc1cc2cc([C@@H](OCCN(C)C)C3CCCCC3)ccc2[nH]c1=O [Co. No. 9]: 614
CCc1cc2cc(C(c3cccnc3)N3CCC(=O)CC3)ccc2[nH]c1=O (stereo not shown) [Co. No. 22]: 198

q: Report measured IC50; entry is CCc1cc2cc([C@@H](C3CCCCC3)N3CCN(CCOC)CC3)ccc2[nH]c1=O [Co. No. 30]
a: 1280

q: Report measured IC50; entry is CCc1cc2cc(CCN3CCC(NCCOC)CC3)ccc2[nH]c1=O [Co. No. 37]
a: 853
